- EXPERIMENTAL_TARGET: NLRP3 (Homo sapiens, UniProt Q96P20)
- Sequence (Q96P20 whole entry): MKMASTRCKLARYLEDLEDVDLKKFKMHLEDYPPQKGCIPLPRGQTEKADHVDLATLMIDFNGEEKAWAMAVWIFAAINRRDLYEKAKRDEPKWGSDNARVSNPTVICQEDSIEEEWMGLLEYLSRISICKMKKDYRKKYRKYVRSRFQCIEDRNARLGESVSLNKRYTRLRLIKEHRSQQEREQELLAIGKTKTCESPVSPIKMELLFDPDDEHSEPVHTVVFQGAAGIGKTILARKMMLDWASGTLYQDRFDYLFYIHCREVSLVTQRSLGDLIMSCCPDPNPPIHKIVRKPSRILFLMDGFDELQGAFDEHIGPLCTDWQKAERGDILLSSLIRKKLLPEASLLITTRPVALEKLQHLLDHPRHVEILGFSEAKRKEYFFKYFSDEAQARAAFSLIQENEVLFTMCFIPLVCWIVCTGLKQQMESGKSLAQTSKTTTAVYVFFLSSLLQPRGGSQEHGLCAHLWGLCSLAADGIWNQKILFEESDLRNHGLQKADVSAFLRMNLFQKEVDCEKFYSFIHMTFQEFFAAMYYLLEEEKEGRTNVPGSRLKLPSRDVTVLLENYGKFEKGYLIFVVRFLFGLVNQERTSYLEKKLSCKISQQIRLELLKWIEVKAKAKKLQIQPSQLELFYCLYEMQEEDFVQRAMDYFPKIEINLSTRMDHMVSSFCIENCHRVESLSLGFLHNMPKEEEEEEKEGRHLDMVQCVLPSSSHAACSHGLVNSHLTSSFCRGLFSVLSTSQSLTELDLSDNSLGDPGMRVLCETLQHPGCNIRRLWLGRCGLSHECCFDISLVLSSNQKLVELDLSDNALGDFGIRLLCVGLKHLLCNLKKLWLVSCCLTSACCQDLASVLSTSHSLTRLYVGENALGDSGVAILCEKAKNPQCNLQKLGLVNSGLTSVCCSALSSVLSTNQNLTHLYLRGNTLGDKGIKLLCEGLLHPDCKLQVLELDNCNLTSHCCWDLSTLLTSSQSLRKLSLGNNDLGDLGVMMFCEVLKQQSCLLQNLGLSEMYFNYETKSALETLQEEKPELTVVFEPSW
- ASSAY_SUMMARY: THP-1 cell-based NLRP3 activation assay
- REPORTED_CONDITIONS: PMA-differentiated THP-1 cells, LPS 100 ng/mL then 10 μM nigericin
pIC50: −log10 of the molar value.
READOUT_TYPE: pIC50

{"MOLECULE": "CCOc1cc(C(=O)N(C)[C@H](CC[N+](C)(C)[O-])c2cncc3cn[nH]c23)ccc1-c1cccc(Cl)c1 [Compound 210]", "MEASURED_VALUE": "4.82 to 6.00"}
{"MOLECULE": "CCOc1cc(C(=O)N(CCO)Cc2cnc(N)c3cn[nH]c23)ccc1-c1cccc(F)c1 [Compound 047]", "MEASURED_VALUE": "6.30 to 7.00"}
{"MOLECULE": "CCOc1cc(C(=O)N(C)[C@H](CN2CCCC2)c2cccc3cn[nH]c23)ccc1-c1cccc(F)c1 [Compound 222]", "MEASURED_VALUE": "6.00 to 6.30"}

Q: Form field: reported pIC50 of CCOc1cc(C(=O)N(C)[C@H](CO)c2cnc(CO)c3cn[nH]c23)ccc1-c1cccc(F)c1 [Compound 037]
Ans: > 7.00

Q: Can you check CCOc1cc(C(=O)N(C)[C@@H](c2cncc3cn[nH]c23)C2CN(C)C2)ccc1-c1cccc(Cl)c1 [Compound 183] next?
Ans: > 7.00

Q: // same read-out, input: CCOc1cc(C(=O)N(C)[C@H](CCNC)c2cncc3cn[nH]c23)ccc1-c1cccc(F)c1 [Compound 039]
Ans: 4.82 to 6.00

Q: Next entry: Cc1ccc([C@@H](CCN(C)C)N(C)C(=O)c2ccc(-c3cccc(F)c3)c(OC3CC3)c2)c2[nH]ncc12 [Compound 202]
Ans: > 7.00

Q: Now try CCOc1cc(C(=O)N(C)[C@H](CCN(C)C)c2cnc(C)c3cn[nH]c23)ccc1-c1cc(Cl)cc(Cl)c1 [Compound 083] .
Ans: > 7.00

Q: Next entry: CN(C)CC[C@H](c1cncc2cn[nH]c12)N(C)C(=O)c1ccc(-c2ccccc2)c(OC2CC2)c1 [Compound 073]
Ans: > 7.00

Q: What would you report for CCOc1cc(C(=O)N(C)[C@@H](c2cncc3cn[nH]c23)C2CN(CC)C2)ccc1-c1cccc(C)c1 [Compound 169] ?
Ans: > 7.00

---

- EXPERIMENTAL_TARGET: UniProtKB Q96P20
- ASSAY_SUMMARY: THP-1 cell-based NLRP3 activation assay
- Design: endogenous in cells; host or cells: THP-1 cells (PMA-differentiated, LPS-primed, nigericin-stimulated)
- REPORTED_CONDITIONS: PMA-differentiated THP-1 cells, LPS 100 ng/mL then 10 μM nigericin
pIC50: −log10 of the molar value.
Below, each entry is listed alongside its reported pIC50.

{"COMPOUND": "CCOc1cc(C(=O)N(C)[C@H](CO)c2cncc3cn[nH]c23)ccc1-c1cc(C)cc(F)c1", "EXPERIMENTAL_TARGET": "UniProtKB Q96P20", "pIC50": "> 7.00"}
{"COMPOUND": "CCOc1cc(C(=O)N(C[C@@H](C)O)[C@@H](C)c2cnc(C)c3cn[nH]c23)ccc1-c1cccc(F)c1", "EXPERIMENTAL_TARGET": "UniProtKB Q96P20", "pIC50": "< 4.82"}
{"COMPOUND": "CCOc1cc(C(=O)N(Cc2cncc3cn[nH]c23)[C@H]2C[C@@H](NC)C2)ccc1-c1cccc(F)c1", "EXPERIMENTAL_TARGET": "UniProtKB Q96P20", "pIC50": "4.82 to 6.00"}
{"COMPOUND": "CCOc1cc(C(=O)N(Cc2cncc3cn[nH]c23)[C@H]2C[C@@H](NC)C2)ccc1-c1ccccc1", "EXPERIMENTAL_TARGET": "UniProtKB Q96P20", "pIC50": "> 7.00"}
{"COMPOUND": "CCOc1cc(C(=O)N(C)[C@H](CC[N+](C)(C)[O-])c2cncc3cn[nH]c23)ccc1-c1ccccc1", "EXPERIMENTAL_TARGET": "UniProtKB Q96P20", "pIC50": "> 7.00"}

Q: Give its pIC50 value. Item: CCOc1cc(C(=O)N(C)[C@H](CCN(C)C)c2cccc3cn[nH]c23)ccc1-c1cc(F)cc(F)c1
Ans: > 7.00

Q: Param item: CCOc1cc(C(=O)N(C)[C@H](CO)c2cnc(CC)c3cn[nH]c23)ccc1-c1cccc(F)c1
Ans: > 7.00
